Where do the numbers come from? From paper PMC11259170.

# TESTED SYSTEM: hGPR65 (Homo sapiens)
# Construct: expressed in transfected cells; host or cells: HeLa (ATCC CCL-2), lentiviral transduction, pLX317
# METHOD: cAMP detection in HeLa expression cell line, hGPR65
# Format: cell-based
# CONDITION LABEL: HeLa, first pair; relative to 100uM forskolin (100%) and DMSO (0%); read-out: hGPR Max Activity %
Note to self: Emax under 40% means yes, ties and anything higher get no.

Example cases with answers are listed next.
>>> cat("Cc1ccc(NC(=O)c2cnn3c(O)cc(-c4ccc(-c5cccc(C(C)C)c5)cc4)nc23)cc1")
"no"
>>> cat("Cc1ccc(NC(=O)c2cnn3c(O)cc(-c4ccc(-c5ccc(O)cc5)cc4)nc23)cc1")
"yes"
>>> cat("Cc1ccc(NC(=O)c2cnn3c(O)cc(-c4ccc(-c5ccncc5)cc4)nc23)cc1")
"yes"

## Task Lab log: compare recorded Emax with 40%; is it strictly lower for Cc1ccc(NC(=O)c2cnn3c(O)cc(-c4ccc(Oc5ccccc5)cc4)nc23)cc1 ?
## Result yes

---

# TESTED SYSTEM: mGPR65 (Mus musculus, UniProt Q61038)
# Construct: expressed in transfected cells; host or cells: HeLa (ATCC CCL-2), lentiviral transduction, pLX317
# Sequence (Q61038 whole entry): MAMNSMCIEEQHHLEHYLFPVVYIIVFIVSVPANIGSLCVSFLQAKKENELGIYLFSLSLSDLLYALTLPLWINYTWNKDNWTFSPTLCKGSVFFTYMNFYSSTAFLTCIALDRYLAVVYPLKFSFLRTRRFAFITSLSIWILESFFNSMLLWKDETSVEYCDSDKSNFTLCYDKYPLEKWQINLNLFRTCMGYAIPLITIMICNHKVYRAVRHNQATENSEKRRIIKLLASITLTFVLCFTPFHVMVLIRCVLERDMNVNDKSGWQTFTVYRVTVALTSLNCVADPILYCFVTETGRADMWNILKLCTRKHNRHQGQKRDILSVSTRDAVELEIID
# METHOD: cAMP detection in HeLa expression cell line, mGPR65
# Format: cell-based
# CONDITION LABEL: 2nd mGPR column pair; NA = no activity; read-out: mGPR EC50
pEC50: −log10 of the molar value.
Label fulfilled when pEC50 >= 6; otherwise not fulfilled.

Example cases with answers are listed next.
>>> cat("Cc1cnc(NC(=O)c2cnn3c(O)cc(-c4ccc(COC(C)C)cc4)nc23)cn1 [BRD5073]")
"not fulfilled"
>>> cat("COCc1ccc(-c2cc(O)n3ncc(C(=O)Nc4ccc(C(=O)OC)cc4)c3n2)cc1 [BRD0592]")
"fulfilled"
>>> cat("CCOCc1ccc(-c2cc(O)n3ncc(C(=O)Nc4ccc(C)cc4)c3n2)cc1 [BRD6745]")
"fulfilled"

## Task Determine whether this compound has pEC50 no lower than 6: Cc1ccc(NC(=O)c2cnn3c(O)cc(-c4ccc(N5CCC(=O)CC5)cc4)nc23)cc1 [BRD8536]
## Result not fulfilled

## Task Determine whether this compound has pEC50 no lower than 6: Cc1ccc(NC(=O)c2cnn3c(O)cc(-c4ccc(N5CCN(C)CC5)nc4)nc23)cc1 [BRD5070]
## Result not fulfilled

## Task Determine whether this compound has pEC50 no lower than 6: Cc1ccc(NC(=O)c2cnn3c(O)cc(-c4ccc(Cl)cc4)nc23)cc1 [BRD2007]
## Result fulfilled

## Task Determine whether this compound has pEC50 no lower than 6: Cc1ccc(NC(=O)c2cnn3c(O)cc(-c4ccc(C(F)(F)F)cc4)nc23)cc1 [BRD5668]
## Result not fulfilled

## Task Determine whether this compound has pEC50 no lower than 6: CCS(=O)(=O)c1ccc(NC(=O)c2cnn3c(O)cc(-c4ccc(COC)cc4)nc23)cc1 [BRD7157]
## Result not fulfilled

---

# TESTED SYSTEM: hGPR65 (Homo sapiens, UniProt Q8IYL9)
# Construct: expressed in transfected cells; host or cells: HeLa (ATCC CCL-2), lentiviral transduction, pLX317
# Sequence (Q8IYL9 whole entry): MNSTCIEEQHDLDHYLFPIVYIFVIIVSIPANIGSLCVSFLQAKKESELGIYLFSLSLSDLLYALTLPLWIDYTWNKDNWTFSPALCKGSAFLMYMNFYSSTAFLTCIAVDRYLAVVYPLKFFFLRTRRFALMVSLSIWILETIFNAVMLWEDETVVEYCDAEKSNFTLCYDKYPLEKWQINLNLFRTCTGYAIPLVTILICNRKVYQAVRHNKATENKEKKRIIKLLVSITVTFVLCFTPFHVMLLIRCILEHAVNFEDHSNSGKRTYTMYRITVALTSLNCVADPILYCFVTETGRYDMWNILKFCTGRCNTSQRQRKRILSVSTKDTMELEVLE
# METHOD: cAMP detection in HeLa expression cell line, hGPR65
# Format: cell-based
# CONDITION LABEL: hGPR EC50; NA = no activity
Note to self: EC50 under 600 nM means YES, ties and anything higher get NO.

Example cases with answers are listed next.
>>> cat("COCc1ccc(-c2cc(O)n3ncc(C(=O)Nc4ccc(C(C)C)cc4)c3n2)cc1")
"NO"
>>> cat("Cc1ccc(NC(=O)c2cnn3c(O)cc(-c4ccc(COC(C)C)cc4)nc23)cc1Cl")
"YES"
>>> cat("COCc1ccc(-c2cc(O)n3ncc(C(=O)Nc4ccc(OC)cc4)c3n2)cc1")
"NO"
>>> cat("Cc1ccc(NC(=O)c2cnn3c(O)cc(-c4ccc(COC(C)C)cc4)nc23)cc1F")
"YES"
>>> cat("COCc1ccc(-c2cc(O)n3ncc(C(=O)Nc4ccc(C)cc4)c3n2)cc1")
"NO"

## Task Lab log: compare recorded EC50 with 600 nM; is it strictly lower for Cc1ccc(NC(=O)c2cnn3c(O)cc(-c4cnc(N5CCN(C)CC5)c(Cl)c4)nc23)cc1 ?
## Result NO

## Task Lab log: compare recorded EC50 with 600 nM; is it strictly lower for Cc1ccc(NC(=O)c2cnn3c(O)cc(-c4ccc(COC(C)C)cc4)nc23)nc1 ?
## Result NO

## Task Lab log: compare recorded EC50 with 600 nM; is it strictly lower for Cc1ccc(NC(=O)c2cnn3c(O)cc(-c4ccc(COC(C)C)c(Cl)c4)nc23)cc1 ?
## Result YES
